Data provenance: patent US12577311

- target-system: CAIX (UniProt Q16790 38-414)
test-readout: pKd
The read-out pKd is expressed as -log10 of concentration in moles per litre.

So for G36 (antibody, V domains shown) VH: EVQLVQSGGGVVQPGGSLRLSCAASGFPFSSYAMSWVRQAPGKGLEWVSAISANGGTTYYADSVKGRFTISRDNSKNTLYLQMNSLRAEDTAVYYCANNGNYRGAFDIWGQGTMVTVSS VL: QSVLTQPPSVSGAPGQRVTISCTGSSSNIGAGFDVHWYQQLPGTAPKLLIYGNTNRPSGVPDRFSGSKSGTSASLAITGLQAEDETDYYCQSYDSRLSAWVFGGGTKLTVLG , the logged pKd turned out to be 8.49
